B1: VH:VL chains; a variant is named by its letters at X, in order (parent)
chain 1: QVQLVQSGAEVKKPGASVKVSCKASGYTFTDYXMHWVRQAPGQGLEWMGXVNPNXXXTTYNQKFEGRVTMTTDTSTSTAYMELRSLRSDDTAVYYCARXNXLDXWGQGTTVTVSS
chain 2: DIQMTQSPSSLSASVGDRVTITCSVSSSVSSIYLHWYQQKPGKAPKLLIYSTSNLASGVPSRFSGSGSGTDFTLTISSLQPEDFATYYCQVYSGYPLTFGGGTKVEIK

variants of: B1; assay: yeast display scFab, FACS + sequencing; details: with MET
The list shows a part of the results. The hit rate among all sequences tested is not known here.
Outcome Measure: antigen binding call

# annotated cases, reported antigen binding call shown
1) FRGKADVD    no binding
2) VKGRGAGS    binds
3) VKGRGSGS    binds
4) FRGRGDVD    binds
5) YAGRGDLV    no binding

Consider the record given below.
antigen binding call reported for this variant DAARGSSV : no binding
